Assay target: Growth hormone secretagogue receptor type 1 (Homo sapiens, UniProt Q92847)
Sequence (Q92847 whole entry): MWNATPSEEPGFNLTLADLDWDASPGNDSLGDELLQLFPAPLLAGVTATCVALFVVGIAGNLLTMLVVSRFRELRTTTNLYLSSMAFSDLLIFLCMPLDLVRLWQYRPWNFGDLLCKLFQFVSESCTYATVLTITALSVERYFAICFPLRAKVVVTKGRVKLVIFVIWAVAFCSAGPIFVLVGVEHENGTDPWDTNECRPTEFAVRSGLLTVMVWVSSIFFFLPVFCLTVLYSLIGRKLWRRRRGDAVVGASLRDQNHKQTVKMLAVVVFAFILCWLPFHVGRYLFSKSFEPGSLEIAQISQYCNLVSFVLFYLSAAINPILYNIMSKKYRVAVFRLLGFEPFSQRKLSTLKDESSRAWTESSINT
Protocol text: Displacement of [125I]-ghrelin from human GHS-R1a stably expressed in HEK cell membrane measured after 60 mins by gamma counter method
Attribute: pIC50
Please note pIC50 is a logarithmic value: minus log10 of concentration in mol/L. Answer with that number alone.

These recorded examples may help you get a feel for the data.
CCOc1cc(Cl)c(C(=O)Nc2nc3ccc(S(=O)(=O)CCCN4CCN(C)CC4)cc3s2)cc1N1CCO[C@H](C)C1: 4.68
CCOc1cc(Cl)c(-c2ncc(-c3nc4ccccc4s3)c(=O)[nH]2)cc1N1CCOCC1: 5.28
CCOc1cc(Cl)c(-c2ccc(-c3nc4c(s3)CN(C(=O)CO)CC4)c(=O)[nH]2)cc1N1CCOCC1: 5.72
CCOc1cc(Cl)c(C(=O)Nc2nc3ccc(S(=O)(=O)CCCN4CCN(C)CC4)cc3s2)cc1N1C[C@@H](C)O[C@@H](C)C1: 4.57

Data request: Could you share which pIC50 value was measured for CCOc1cc(Cl)c(C(=O)NC(=O)Nc2nc3ccc(S(=O)(=O)C4CCN(C)CC4)cc3s2)cc1-n1cccn1 ?
Data returned: 8.10

Data request: And then CCOc1cc(Cl)c(C(=O)NC(=O)Nc2nc3ccc(CN4CCN(C)CC4)cc3s2)cc1N1CCOCC1 , what is it?
Data returned: 6.02

Data request: And then CCOc1cc(Cl)c(-c2ccc(-c3nc4ccc(S(=O)(=O)C5CCN(C)CC5)cc4s3)c(=O)[nH]2)cc1N1CCOCC1 , what is it?
Data returned: 6.34

Data request: And then CCOc1cc(Cl)c(-c2ccc(-c3nc4ccccc4s3)c(=O)[nH]2)cc1N1CCOCC1 , what is it?
Data returned: 5.89
